- system-under-test: rat relaxin family peptide receptor 2 (RXFP2) (rat) (UniProt Q5ECL0)
- Sequence (Q5ECL0 entry or part of it): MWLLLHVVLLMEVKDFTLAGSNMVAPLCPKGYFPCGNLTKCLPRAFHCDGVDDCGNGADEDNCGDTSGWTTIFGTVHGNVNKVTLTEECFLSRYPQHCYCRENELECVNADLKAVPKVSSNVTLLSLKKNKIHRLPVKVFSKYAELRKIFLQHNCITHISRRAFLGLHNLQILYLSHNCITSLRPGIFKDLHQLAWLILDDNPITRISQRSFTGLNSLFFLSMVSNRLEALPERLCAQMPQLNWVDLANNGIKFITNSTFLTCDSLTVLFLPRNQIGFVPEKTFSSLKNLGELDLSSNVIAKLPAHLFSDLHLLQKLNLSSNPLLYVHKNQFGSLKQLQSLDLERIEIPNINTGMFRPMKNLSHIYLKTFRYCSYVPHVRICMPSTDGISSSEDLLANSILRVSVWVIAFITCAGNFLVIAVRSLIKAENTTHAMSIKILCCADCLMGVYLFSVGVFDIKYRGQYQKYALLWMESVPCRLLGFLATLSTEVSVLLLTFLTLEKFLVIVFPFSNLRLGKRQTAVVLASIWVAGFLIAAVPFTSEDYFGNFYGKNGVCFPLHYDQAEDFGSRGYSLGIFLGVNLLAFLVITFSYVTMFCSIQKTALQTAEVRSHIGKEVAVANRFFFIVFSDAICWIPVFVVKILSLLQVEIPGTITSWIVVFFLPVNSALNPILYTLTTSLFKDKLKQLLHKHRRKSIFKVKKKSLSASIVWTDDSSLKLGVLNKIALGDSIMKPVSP
Consider the following binders and their measured IC50, INSL3-stimulated CYP11B2 mRNA in H295R stably expressing rat RXFP2 readings.
metric: IC50, INSL3-stimulated CYP11B2 mRNA in H295R stably expressing rat RXFP2 (nM)

>>> reported_value("RXFP2 mAb 4H5 (antibody, V domains shown) VH: QVQLKQSGPGLVQPSQSLSITCTVSGFSLTNYGVHWVRQSPGKGLEWLGVIWRDGNTDYNAAFMSRLSITKDNSKSQVFFEMNSLQVDDTAIYYCCRGDGYYAMGYWGQGTSVTVSS VL: DIQMTQSPASLSVSVGETVTITCRASENIYSNLAWYQQRQGRSPQLLVYAATNLADGVPSRFSGSGSGTQYSLKINSLQSEDFGNYYCQHFWGSPRTFGGGTKLEIK")
0.15
>>> reported_value("RXFP2 mAb 3F1 (antibody, V domains shown) VH: QVQLKESGPGLVAPSQSLSITCTVSGFSLTDYGVSWIRQPPGKGLEWLGVIWGGGSTDYNPALKSRLSISKDNSKSQVFLKMNSLQADDTAMYYCVKHEGYYAMDYWGQGTSVTVSS VL: DIQMTQSPASLSVSVGETVTITCRASENIYSNLAWYQQKQGKSPHLLVYAVTNLADGVPSRFSGSGSGTQYSLKINSLQSEDFGSYYCQHFWGTPYTFGGGTKLEIK")
0.23
>>> reported_value("RXFP2 mAb 1F2 (antibody, V domains shown) VH: QVQLKQSGPGLVQPSQSLSITCTVSGFSLTAYGVNWVRQSPGKGLEWLGVIWSGGNTDYNAPFISRLSITKDNSKSQVFFKMNSLEADDTAIYYCARAKGYYAMDYWGQGTSVTVSS VL: DIQMTQSPASLSVSVGESVTITCRATENIYSNLVWYQQKQGQSPQLLVYAVTSLADGVPSRFSGSGSGTQYSLKINSLQSEDFGTYYCQHFWGTPYTFGGGTKLEIK")
0.1
>>> reported_value("RXFP2 mAb 3G4 (antibody, V domains shown) VH: QVQLKESGPGLVAPSQSLSITCTVSGFSLTSYGVSWVRQPPGKGLEWLGVIWGDGSTNYHSALISRLSISKDNSKSQVFLKLNSLQTDDTATYYCAKSLGYYAMDYWGQGTSVTVSS VL: DIQMTQSPASLSVSVGETVTITCRASENIYSNLVWYQQKQGKSPQLLVYAATNLAEGVPSRFSGSGSGTQYSLKINSLQSEDFGSYYCQHFWGPPWTFGGGTKLEIK")
0.2
>>> reported_value("RXFP2 mAb 4H2 (antibody, V domains shown) VH: QVQLRQSGPSLVQPSQSLSITCTVSGFSLTNYGVHWVRQSPGKGLEWLGVIWRGGNTDHNAAFMSRLSITKDNSESQVFFKMNSLQVDDTAIYYCAKAEGYYALDYWGQGTSVTVYS VL: DIQMTQSPASLSVSVGETVTITCRASENIYSNLAWYQQKQGKSPQLLVYAVTNLADGVPSRFSGSGSGTQYSLKINSLQSEDFGSYYCQHFWGTPWTFGGGTKLEIK")
0.13
>>> reported_value("RXFP2 mAb 1G1 (antibody, V domains shown) VH: EVQLQQSGPELVKPGASVKMSCKASGYTFTDYNMHWVKQKPGQGLEWIGYINPYNDGTEYNEKFKGKATLTSDKSSSTAYMDLSSLTSEDSAVYYCARGLWFAMNYWGQGTSVTVSS VL: DIQMTQSSSSFSVSLGDRVTITCKASEDIYNRLAWYQQKPGNTPRLLISGATILETGVPSRFSGSGSGKDYTLSIISLQTEDVATYYCQQYWIIPPTFGGGTKLEIK")
0.17
>>> reported_value("RXFP2 mAb 4A5 (antibody, V domains shown) VH: DVQLVESGGGLVQPGGSRKLSCAASGFTFSTFGMHWVRQAPEKGLEWVAYISSGSSTIYYADTVKGRFTISRDNPKNTLFLQMTSLRSDDTAMYYCSRSYYGSAHYFDYWGQGTTLTVSS VL: DIQMTQSPASLSVSVGETVTITCRASENIYSNLAWYQQKQGKSPQLLVYVATNLADGVPSRFSGSGSGTQYSLRINNLQSEDFGNYYCQHFWGTPPTFGGGTKLEIK")
0.31
>>> reported_value("RXFP2 mAb 4G6 (antibody, V domains shown) VH: EVQLQQSGPELVKPGASVKLSCKASGYTFTSYVMHWVKQKPEQGLEWIGYKNPSNDGIKYNEKFKGKATLTSDKSSNIAYMELFSLTSEDSAVYYCARSDFGSVWAMDYWGQGTSVTVSS VL: SIVMTQTPKFLLVSAGDRVTITCKASQSVNDDIVWYQQKPGQSPKLLIYYASNRYTGVPDRFTGSGYGTDFTFTISTVQAGDLAVYFCQQDYSSPFTFGSGTKLEIK")
0.1
>>> reported_value("RXFP2 mAb 3F3 (antibody, V domains shown) VH: QVQLQQPGSVLVRPGASVKLSCKASGYIFTSYWMHWVKQRPGQGLEWIGEIYPNSGRTSYNEKFKGKATVTVDTSSSTAYVDLSSLTSEDSAVYYCASGGHWFAYWGQGTLVTVSA VL: DIQMTQSSSSFSVSLGDRVTITCKASEDIYNRLAWYQQKPGNAPRLLISGATSLEAGVPSRFSGSGSGKDYTLSITSLQTEDVSTYYCQQYWITPYTFGGGTKLEIK")
0.51
>>> reported_value("RXFP2 mAb 4B8 (antibody, V domains shown) VH: QVQLKQSGPGLVQPSQSLSITCTVSGFSLSRYGVHWVRQSPGKGLEWLGVIWSGGSTEYNAVFKSRLSISKDNSKSQVFFKMNSLQANDTAIYYCVRADGYYAMEYWGQGTSVTVSS VL: DIQMTQSPASLSVSVGETVTITCRASENIYSNLAWYQQKQGKSPQLLVYAVTNLADGVPSRFSGSGSGTQYSLKINSLQSEDFGNYYCQHFWGTPYTFGGGTKLEIK")
0.17

Origin of the recorded values: paper PMC11162469
